Molecular target: C-X-C chemokine receptor type 3 (Mus musculus)
Sequence (O88410 whole entry): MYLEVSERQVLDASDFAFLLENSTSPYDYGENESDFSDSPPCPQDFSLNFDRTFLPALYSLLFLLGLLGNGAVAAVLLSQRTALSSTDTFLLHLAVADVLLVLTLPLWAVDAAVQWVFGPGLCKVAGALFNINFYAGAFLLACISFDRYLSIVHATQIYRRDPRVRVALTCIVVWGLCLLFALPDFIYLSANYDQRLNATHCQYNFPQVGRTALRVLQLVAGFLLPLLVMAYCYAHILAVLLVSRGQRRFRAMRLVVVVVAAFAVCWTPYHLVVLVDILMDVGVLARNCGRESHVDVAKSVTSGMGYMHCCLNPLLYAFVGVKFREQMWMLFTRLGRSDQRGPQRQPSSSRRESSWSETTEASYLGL
Experiment: Displacement of [125I]-CXCL10 from mouse CXCR3 expressed in CHO cell membrane
measurement type: IC50 (nM)

In the examples that follow, each entry is paired with its recorded IC50.
compound | assayed system | observed measurement
CN(CCn1c(=N)n(CC(=O)c2ccc(Cl)cc2)c2cccc(Cl)c21)C(=O)Cc1ccccc1 | C-X-C chemokine receptor type 3 (Mus musculus) | 1500
CN(CCCn1c(=N)n(CC(=O)c2ccc(Cl)cc2)c2cccc(Cl)c21)C(=O)Cc1ccccc1 | C-X-C chemokine receptor type 3 (Mus musculus) | 1400
CCc1cccc2c1n(CCCN(C)C(=O)Cc1ccccc1)c(=N)n2CC(=O)c1ccc(Cl)cc1 | C-X-C chemokine receptor type 3 (Mus musculus) | 1800
N=c1n(CC(=O)c2ccc(Cl)cc2)c2cccc(Cl)c2n1C[C@H]1CCCN(C(=O)c2cccc3cccnc23)C1 | C-X-C chemokine receptor type 3 (Mus musculus) | 70
CN(CCCn1c(=N)n(CC(=O)c2ccc(Cl)cc2)c2cccc(Cl)c21)C(=O)c1ccccn1 | C-X-C chemokine receptor type 3 (Mus musculus) | 200

I: N=c1n(CC(=O)c2ccc(Cl)cc2)c2cccc(Cl)c2n1CC[C@@H]1CCCN1C(=O)c1cccc2cccnc12
II: N=c1n(CC(=O)c2ccc(Cl)cc2)c2cccc(Cl)c2n1C[C@@H]1CCCN(C(=O)c2cccc3cccnc23)C1
III: N=c1n(CC(=O)c2ccc(Cl)cc2)c2cccc(Cl)c2n1CCCN(C(=O)c1cccc2cccnc12)C1CC1
Exercise: Order the items by recorded IC50; the first position goes to the largest value. As an answer, provide the labels arranged in the order called for.
Solution: III, II, I

I: N=c1n(CC(=O)c2ccc(Cl)cc2)c2cccc(Cl)c2n1CC1CCCN(C(=O)c2cccc3cccnc23)C1 (stereo not drawn)
II: CN(CCCn1c(=N)n(CC(=O)c2ccc(Cl)cc2)c2cccc(Cl)c21)C(=O)c1ccc2ccccc2c1
Exercise: Would you let me know which has the greater IC50 value, I or II ? Kindly give the label for the entry you pick.
Solution: II

A: CN(CCCn1c(=N)n(CC(=O)c2ccc(Cl)cc2)c2cccc(Cl)c21)C(=O)c1cccc2cccnc12
B: CN(CCCn1c(=N)n(CC(=O)c2ccc(Cl)cc2)c2cccc(Cl)c21)C(=O)c1ccccc1
Exercise: Lower IC50: A or B ? Kindly give the label for the entry you pick.
Solution: A
(A: 50 nM, B: 800 nM)

###

Biological target: C-X-C chemokine receptor type 3 (Homo sapiens, UniProt P49682)
Sequence (P49682 whole entry): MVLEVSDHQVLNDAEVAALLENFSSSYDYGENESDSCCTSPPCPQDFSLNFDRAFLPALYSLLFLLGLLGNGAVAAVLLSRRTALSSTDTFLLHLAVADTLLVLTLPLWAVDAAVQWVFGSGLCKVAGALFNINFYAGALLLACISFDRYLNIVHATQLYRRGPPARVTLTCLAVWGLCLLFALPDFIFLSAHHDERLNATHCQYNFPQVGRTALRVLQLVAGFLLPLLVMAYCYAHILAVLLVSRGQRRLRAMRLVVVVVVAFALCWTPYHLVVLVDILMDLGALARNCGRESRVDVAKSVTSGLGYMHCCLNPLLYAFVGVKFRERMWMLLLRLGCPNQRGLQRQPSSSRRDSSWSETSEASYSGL
Assay: Displacement of [125I]-CXCL10 from human CXCR3 expressed in CHO cell membrane
Type: cell membranes
measurement type: IC50 (nM)

In the examples that follow, each entry is paired with its recorded IC50.
chemical string | IC50, nM
CN(Cc1ccccc1)C(=O)Cn1c(=N)n(CC(=O)c2ccc(Cl)cc2)c2ccccc21 | 2200
CCc1cccc2c1n(CCCN(C)C(=O)Cc1ccccc1)c(=N)n2CC(=O)c1ccc(Cl)cc1 | 200
CN(CCCn1c(=N)n(CC(=O)c2ccc(Cl)cc2)c2cccc(Cl)c21)C(=O)c1cccc2cccnc12 | 20
CC(=O)N(C)CCn1c(=N)n(CC(=O)c2ccc(Cl)cc2)c2ccccc21 | 1300
N=c1n(CC(=O)c2ccc(Cl)cc2)c2cccc(Cl)c2n1CCCN(C(=O)c1cccc2cccnc12)C1CC1 | 20
CN(CCCn1c(=N)n(CC(=O)c2ccc(Cl)cc2)c2cccc(Cl)c21)C(=O)c1ccc2ccccc2c1 | 15
CN(CCn1c(=N)n(CC(=O)c2ccc(Cl)cc2)c2ccccc21)C(=O)c1ccccc1 | 300
CN(Cc1ccccc1)C(=O)CCn1c(=N)n(CC(=O)c2ccc(Cl)cc2)c2ccccc21 | 400
CN(CCCCn1c(=N)n(CC(=O)c2ccc(Cl)cc2)c2cccc(Cl)c21)C(=O)Cc1ccccc1 | 400
CCCn1c(=N)n(CC(=O)c2ccc(Cl)cc2)c2ccccc21 | 1100

1: CCOC(=O)CCn1c(=N)n(CC(=O)c2ccc(Cl)cc2)c2ccccc21
2: CN(CCn1c(=N)n(CC(=O)c2ccc(Cl)cc2)c2ccccc21)C(=O)Cc1ccccc1
3: N=c1n(CC(=O)c2ccc(Cl)cc2)c2cccc(Cl)c2n1CC[C@@H]1CCCN1C(=O)c1cccc2cccnc12
Exercise: Order the entries by their reported IC50, beginning at the minimum. As an answer, provide the labels arranged in the order called for.
Solution: 3, 2, 1
(3: 8 nM, 2: 400 nM, 1: 1200 nM)

A: CN(CCn1c(=N)n(CC(=O)c2ccc(Cl)cc2)c2cccc(Cl)c21)C(=O)Cc1ccccc1
B: COc1ccccc1C(=O)N(C)CCCn1c(=N)n(CC(=O)c2ccc(Cl)cc2)c2cccc(Cl)c21
C: Cn1c(=N)n(CC(=O)c2ccc(Cl)cc2)c2ccccc21
D: N=c1n(CC(=O)c2ccc(Cl)cc2)c2cccc(Cl)c2n1C[C@H]1CCCN(C(=O)c2cccc3cccnc23)C1
Exercise: Order the entries by their reported IC50, beginning at the minimum. As an answer, provide the labels arranged in the order called for.
Solution: D, B, A, C

###

Target: C-X-C chemokine receptor type 3 (Homo sapiens)
Test: Antagonist activity at human CXCR3 expressed in CHO cell […] assessed as inhibition of calcium flux by FLIPR
Type: functional, cell-based
pIC50: −log10 of the molar value.
measurement type: pIC50

In the examples that follow, each entry is paired with its recorded pIC50.
chemical string | pIC50
CN(CCCn1c(=N)n(CC(=O)c2ccc(Cl)cc2)c2cccc(Cl)c21)C(=O)c1ccccn1 | 7.70
CN(CCCn1c(=N)n(CC(=O)c2ccc(Cl)cc2)c2cccc(Cl)c21)C(=O)c1ccccc1 | 7.70

A: CN(CCCn1c(=N)n(CC(=O)c2ccc(Cl)cc2)c2cccc(Cl)c21)C(=O)c1ccc2ccccc2c1
B: N=c1n(CC(=O)c2ccc(Cl)cc2)c2cccc(Cl)c2n1CC[C@@H]1CCCN1C(=O)c1cccc2cccnc12
C: N=c1n(CC(=O)c2ccc(Cl)cc2)c2cccc(Cl)c2n1CCCN(C(=O)c1cccc2cccnc12)C1CC1
D: CN(CCCCn1c(=N)n(CC(=O)c2ccc(Cl)cc2)c2cccc(Cl)c21)C(=O)Cc1ccccc1
Exercise: Order the items by recorded pIC50; the first position goes to the largest value. As an answer, provide the labels arranged in the order called for.
Solution: C, B, A, D
(C: 8.00, B: 7.70, A: 7.40, D: 6.40)

All values here come from ChEMBL document CHEMBL1143901.
